# study_target: Dipeptidyl peptidase 1 (Homo sapiens)
# test_summary: Inhibition of Cathepsin C in human THP-1 cells using H-Gly-Phe-AFC as substrate pretreated for 1 hr followed by substrate addition and incubated for 60 mins by microplate reader assay
# Type: cell-based
IC50 strictly under 200 nM means satisfied; at 200 nM or over means not satisfied.

Determine whether this molecule shows IC50 lower than 200 nM (ties excluded): FC(F)(F)c1cccc(Nc2nc(Nc3cc(-c4ccsc4)ccn3)ncc2Cl)c1
not satisfied

Quick check: IC50 of NC(=O)c1cccc(-c2cnc(Nc3ccc(-c4ccsc4)cn3)nc2Nc2cccc(C(F)(F)F)c2)c1 under 200 nM?
not satisfied

IC50 strictly < 200 nM for this molecule? FC(F)(F)c1cccc(Nc2nc(Nc3ccc(-c4ccco4)cn3)ncc2Cl)c1
not satisfied

Strictly below 200 nM in IC50? FC(F)(F)c1cccc(Nc2nc(Nc3ccc(-c4ccsc4)nc3)ncc2Cl)c1
satisfied

Is IC50 of FC(F)(F)Oc1cccc(Nc2nc(Nc3ccc(-c4ccsc4)cn3)ncc2Cl)c1 strictly below 200 nM?
satisfied

Lab note: confirm whether the reported IC50 for this molecule is below 200 nM, equality not counting. molecule: CC(=O)c1cccc(-c2cnc(Nc3ccc(-c4ccsc4)cn3)nc2Nc2cccc(C(F)(F)F)c2)c1
not satisfied

Lab note: confirm whether the reported IC50 for this molecule is below 200 nM, equality not counting. molecule: CC(=O)Nc1ccc(Nc2nc(Nc3ccc(-c4ccsc4)cn3)ncc2Cl)cc1
satisfied

# strict comparison: is reported IC50 < 200 nM? input = Cn1cc(-c2cnc(Nc3ccc(-c4ccsc4)cn3)nc2Nc2cccc(C(F)(F)F)c2)cn1
not satisfied

Say whether its IC50 is strictly beneath 200 nM. Entry: CC(=O)Nc1cccc(Nc2nc(Nc3ccc(-c4ccsc4)cn3)ncc2Cl)c1
satisfied

In the record for CS(=O)(=O)c1ccc(-c2cnc(Nc3ccc(-c4ccsc4)cn3)nc2Nc2cccc(C(F)(F)F)c2)cc1 , is IC50 less than 200 nM?
not satisfied

Hello, is IC50 of the following molecule strictly smaller than 200 nM? FC(F)(F)c1cccc(Nc2nc(Nc3cnc(-c4ccsc4)cn3)ncc2Cl)c1
not satisfied

Lab note: IC50 threshold 200 nM. Does this molecule come in strictly under it? FC(F)(F)c1cccc(Nc2nc(Nc3ccc(-c4ccsc4)cn3)ncc2-c2cccc(Cl)c2)c1
not satisfied

Here's an entry: FC(F)(F)c1cccc(Nc2nc(Nc3ccc(-c4ccsc4)cn3)ncc2-c2ccoc2)c1 . Is its IC50 below 200 nM?
not satisfied

Please indicate whether the reported IC50 of Nc1cccc(Nc2nc(Nc3ccc(-c4ccsc4)cn3)ncc2Cl)c1 is strictly below 200 nM.
satisfied

Determine whether this molecule shows IC50 lower than 200 nM (ties excluded): FC(F)(F)c1cccc(Nc2nc(Nc3ccc(-c4ccsc4)nn3)ncc2Cl)c1
satisfied

Answer whether the molecule CN1CC=C(c2cnc(Nc3ccc(-c4ccsc4)cn3)nc2Nc2cccc(C(F)(F)F)c2)CC1 has IC50 strictly less than 200 nM
not satisfied

Here's an entry: CC(=O)Nc1cccc(-c2cnc(Nc3ccc(-c4ccsc4)cn3)nc2Nc2cccc(C(F)(F)F)c2)c1 . Is its IC50 below 200 nM?
not satisfied

Say whether its IC50 is strictly beneath 200 nM. Entry: FC(F)(F)c1cccc(Nc2nc(Nc3ccc(-c4ccsc4)cn3)ncc2-c2ccc(Cl)cc2)c1
not satisfied

----------
# study_target: Dipeptidyl peptidase 1 (Homo sapiens)
# test_summary: Inhibition of human recombinant Cathepsin C using H-Gly-Arg-AMC as substrate pretreated for 30 mins followed by substrate addition and incubated for 60 mins by microplate reader assay
Entries and their IC50 values follow.
Enter your answer as a number in nM; do not include the unit.

API: value(readout= IC50, system= Dipeptidyl peptidase 1 (Homo sapiens), query= CC(=O)c1cccc(-c2cnc(Nc3ccc(-c4ccsc4)cn3)nc2Nc2cccc(C(F)(F)F)c2)c1 )
156

Give the reported IC50 for CC(=O)Nc1ccc(Nc2nc(Nc3ccc(-c4ccsc4)cn3)ncc2Cl)cc1 (system: Dipeptidyl peptidase 1 (Homo sapiens)).
76.4

----------
# test_summary: Cmax in Sprague-Dawley rat at 2 mg/kg, iv measured after 24 hrs by LC-MS/MS analysis
# Format: ADME, organism-based
# Design: time 24 hrs, dose 2 mg/kg, route iv
# run_parameters: in vivo
experimental_readout: Cmax (ng/mL)
# output: bare number, implied unit ng/mL

I would be grateful if you could share the reported Cmax for CC(=O)Nc1cccc(Nc2nc(Nc3ccc(-c4ccsc4)cn3)ncc2Cl)c1 .
309

----------
# study_target: UniProt:P53634
# test_summary: Inhibition of human recombinant Cathepsin C using H-Gly-Arg-AMC as substrate pretreated for 30 mins followed by substrate addition and incubated for 60 mins by microplate reader assay
pIC50: −log10 of the molar value.
Classification field: YES = pIC50 at or over 7; NO = pIC50 under 7.

Worked examples, 2 molecules total:
query_smiles	assigned_class
Nc1ccc(Nc2nc(Nc3ccc(-c4ccsc4)cn3)ncc2Cl)cc1	YES
FC(F)(F)c1cccc(Nc2nc(Nc3ccc(-c4ccsc4)cn3)ncc2-c2ccc(Cl)cc2)c1	NO

Does pIC50 meet or surpass 7 for NC(=O)c1cccc(-c2cnc(Nc3ccc(-c4ccsc4)cn3)nc2Nc2cccc(C(F)(F)F)c2)c1 ?
NO

----------
# study_target: Dipeptidyl peptidase 1 (Homo sapiens, UniProt P53634)
# Sequence (P53634 25-134 limits assumed): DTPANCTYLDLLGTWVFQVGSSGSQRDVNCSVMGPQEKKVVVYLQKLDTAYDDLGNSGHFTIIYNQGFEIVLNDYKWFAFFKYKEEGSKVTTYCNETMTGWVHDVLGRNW
# Sequence (P53634 231-394 limits assumed): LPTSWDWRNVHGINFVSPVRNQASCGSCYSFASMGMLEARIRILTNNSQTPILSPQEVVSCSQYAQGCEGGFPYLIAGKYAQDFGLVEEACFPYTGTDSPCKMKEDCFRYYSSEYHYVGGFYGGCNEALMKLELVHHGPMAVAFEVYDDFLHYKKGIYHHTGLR
# Sequence (P53634 395-463 limits assumed): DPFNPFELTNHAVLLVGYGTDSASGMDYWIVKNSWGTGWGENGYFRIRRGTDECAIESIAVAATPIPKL
# test_summary: Inhibition of human recombinant Cathepsin C using H-Gly-Arg-AMC as substrate pretreated for 30 mins followed by substrate addition and incubated for 60 mins by microplate reader assay
experimental_readout: IC50

query_smiles	IC50
FC(F)(F)Oc1cccc(Nc2nc(Nc3ccc(-c4ccsc4)cn3)ncc2Cl)c1	252 nM
NC(=O)c1ccc(-c2cnc(Nc3ccc(-c4ccsc4)cn3)nc2Nc2cccc(C(F)(F)F)c2)cc1	133 nM

# next compound below
Return reported IC50; argument: FC(F)(F)c1cccc(Nc2nc(Nc3ncc(-c4ccsc4)cn3)ncc2Cl)c1
> 5000 nM

----------
# study_target: Dipeptidyl peptidase 1 (Homo sapiens)
# test_summary: Inhibition of human recombinant Cathepsin C using H-Gly-Arg-AMC as substrate pretreated for 30 mins followed by substrate addition and incubated for 60 mins by microplate reader assay
experimental_readout: pIC50
Please express pIC50 as -log10 of the molar concentration.

Here's what some known entries look like.
query_smiles	measurement
CC(=O)Nc1cccc(Nc2nc(Nc3ccc(-c4ccsc4)cn3)ncc2Cl)c1	7.22
FC(F)(F)c1cccc(Nc2nc(Nc3cc(-c4ccsc4)ccn3)ncc2Cl)c1	7.11
CC(=O)Nc1ccc(-c2cnc(Nc3ccc(-c4ccsc4)cn3)nc2Nc2cccc(C(F)(F)F)c2)cc1	7.21
O=[N+]([O-])c1cc(-c2ccsc2)cnc1Nc1ncc(Cl)c(Nc2cccc(C(F)(F)F)c2)n1	6.82

Returns the measured pIC50 for the input compound. Input: Cn1cc(-c2cnc(Nc3ccc(-c4ccsc4)cn3)nc2Nc2cccc(C(F)(F)F)c2)cn1
6.61

----------
# study_target: Dipeptidyl peptidase 1 (Homo sapiens, UniProt P53634)
# test_summary: Inhibition of human recombinant Cathepsin C using H-Gly-Arg-AMC as substrate pretreated for 30 mins followed by substrate addition and incubated for 60 mins by microplate reader assay
experimental_readout: IC50 (nM)
// return numeric value only (unit: nM, not printed)

query_smiles	IC50, nM
FC(F)(F)c1ccc(Nc2nc(Nc3ccc(-c4ccsc4)cn3)ncc2Cl)cc1	105

Reported IC50 for Fc1ccc(Nc2nc(Nc3ccc(-c4ccsc4)cn3)ncc2Cl)cc1 : what is it?
128

I'd like to know its IC50. The compound in question is FC(F)(F)c1cccc(Nc2nc(Nc3ccc(-c4ccsc4)nn3)ncc2Cl)c1
90.6

Please report the recorded IC50 for FC(F)(F)c1cccc(Nc2nc(Nc3ccc(-c4cccs4)cn3)ncc2Cl)c1 .
128

----------
# study_target: Dipeptidyl peptidase 1 (Homo sapiens)
# test_summary: Inhibition of human recombinant Cathepsin C using H-Gly-Arg-AMC as substrate pretreated for 30 mins followed by substrate addition and incubated for 60 mins by microplate reader assay
IC50 by entry:

# example entries with known answers
query_smiles	IC50
FC(F)(F)c1cccc(Nc2nc(Nc3ccc(-c4ccsc4)cc3)ncc2Cl)c1	> 5 µM
FC(F)(F)c1cccc(Nc2nc(Nc3ccc(-c4ccsc4)cn3)ncc2-c2cccc(Cl)c2)c1	> 5 µM

For FC(F)(F)c1cccc(Nc2nc(Nc3ccc(-c4ccco4)cn3)ncc2Cl)c1 , what is its reported IC50?
> 5 µM

----------
Listing of entries alongside the reported pIC50.
# study_target: Dipeptidyl peptidase 1 (Homo sapiens)
# test_summary: Inhibition of human recombinant Cathepsin C using H-Gly-Arg-AMC as substrate pretreated for 30 mins followed by substrate addition and incubated for 60 mins by microplate reader assay
pIC50: −log10 of the molar value.

Entry under review: FC(F)(F)c1cccc(Nc2nc(Nc3cnc(-c4ccsc4)cn3)ncc2Cl)c1 . Reported pIC50?
< 5.30

GET /values?readout=pIC50&item= FC(F)(F)c1cccc(Nc2nc(Nc3ccc(-c4ccsc4)cn3)ncc2-c2ccccc2)c1
< 5.30

Which value of pIC50 has been reported for CN1CCN(c2ccc(-c3cnc(Nc4ccc(-c5ccsc5)cn4)nc3Nc3cccc(C(F)(F)F)c3)cc2)CC1 in the records?
< 5.30

Using the record for FC(F)(F)c1cccc(Nc2nc(Nc3ccc(-c4ccsc4)cn3)ncc2-c2ccncc2)c1 , report its pIC50.
< 5.30

Dear colleague, I am looking for the recorded pIC50 of the following compound: FC(F)(F)c1cccc(Nc2nc(Nc3ccc(-c4ccsc4)cn3)ncc2-c2ccoc2)c1
< 5.30

GET /values?readout=pIC50&item= CN1CC=C(c2cnc(Nc3ccc(-c4ccsc4)cn3)nc2Nc2cccc(C(F)(F)F)c2)CC1
< 5.30

Which pIC50 is reported for this compound? CC(=O)Nc1cccc(-c2cnc(Nc3ccc(-c4ccsc4)cn3)nc2Nc2cccc(C(F)(F)F)c2)c1
< 5.30

Can you look up the measured pIC50 of FC(F)(F)c1cccc(Nc2nc(Nc3cccc(-c4ccsc4)c3)ncc2Cl)c1 for me?
7.18

Need pIC50, item Clc1cnc(Nc2ccc(-c3ccsc3)cn2)nc1NC1CCNCC1
7.04

If you can, please state the reported pIC50 value of Nc1cccc(Nc2nc(Nc3ccc(-c4ccsc4)cn3)ncc2Cl)c1 .
6.88

Quick check: pIC50 of FC(F)(F)c1ccc(CNc2nc(Nc3ccc(-c4ccsc4)cn3)ncc2Cl)cc1 ?
7.16

Which pIC50 value is on record for CS(=O)(=O)c1ccc(-c2cnc(Nc3ccc(-c4ccsc4)cn3)nc2Nc2cccc(C(F)(F)F)c2)cc1 ?
< 5.30
